system-name: human MC4R (Homo sapiens, UniProt P32245)
Construct: expressed in transfected cells
Sequence (P32245 whole entry): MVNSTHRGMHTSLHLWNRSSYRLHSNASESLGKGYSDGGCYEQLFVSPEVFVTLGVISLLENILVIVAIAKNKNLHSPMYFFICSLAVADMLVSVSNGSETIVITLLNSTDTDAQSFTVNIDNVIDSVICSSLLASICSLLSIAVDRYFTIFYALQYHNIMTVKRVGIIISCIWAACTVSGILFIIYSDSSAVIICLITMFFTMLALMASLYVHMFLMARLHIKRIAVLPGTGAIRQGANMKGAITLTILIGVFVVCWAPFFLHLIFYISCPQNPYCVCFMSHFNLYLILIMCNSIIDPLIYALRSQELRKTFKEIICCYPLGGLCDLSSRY
assay-remarks: Functional cAMP assay (CisBio HTRF) in BHK cells expressing human MC4R
Type: cell-based
Method: In order to assess the potency of the compounds on human MC1R and human MC4R cAMP signalling was measured. cAMP induction was measured by c-AMPdynamic2 assay, HTRF 62AM4PEC system from CisBio for the human MC1R and human MC4R according to the protocol provided by the vendor. BHK cells expressing the human MC1 or MC4 receptor were generated by stable transfection with expression vectors encoding the cDNA of either MC1R or MC4R. […]
Positions of bridges follow the written chain, without caps; N, C: chain ends. Non-standard residues stand in square brackets, D forms with d. Residues, ends and D or L forms follow the SMILES beside them. Lys(CH2CO2H)2 = N[C@@H](CCCCN(CC(=O)O)CC(=O)O)C(=O)O; Orn = NCCC[C@H](N)C(=O)O; Thz = O=C(O)[C@@H]1CSCN1

[
  {
    "molecule": "C[C@@H]1NC(=O)[C@H](C)NC(=O)[C@@H]2CSSC[C@H](NC(=O)[C@H](Cc3c[nH]c4ccccc34)NC(=O)[C@H](C)NC(=O)[C@H](CCCCN(CC(=O)O)CC(=O)O)NC1=O)C(=O)N1CSC[C@H]1C(=O)N[C@@H](Cc1c[nH]cn1)C(=O)N[C@H](Cc1ccccc1)C(=O)N[C@@H](Cc1c[nH]cn1)C(=O)N[C@@H](Cc1c[nH]c3ccccc13)C(=O)N2 [Chem. 104] (cyclo(AA[Lys(CH2CO2H)2]AWC[Thz]H[dF]HWC); disulfide 6-12)",
    "readout-unit": "nM",
    "EC50": 0.6
  },
  {
    "molecule": "C[C@@H]1NC(=O)[C@H](C)NC(=O)[C@@H]2CSSC[C@H](NC(=O)[C@H](Cc3c[nH]c4ccccc34)NC(=O)[C@H](C)NC(=O)[C@H](CCCCN)NC1=O)C(=O)N1CSC[C@H]1C(=O)N[C@@H](Cc1c[nH]cn1)C(=O)N[C@H](Cc1ccccc1)C(=O)N[C@@H](Cc1c[nH]cn1)C(=O)N[C@@H](Cc1c[nH]c3ccccc13)C(=O)N2 [Chem. 109] (cyclo(AAKAWC[Thz]H[dF]HWC); disulfide 6-12)",
    "readout-unit": "nM",
    "EC50": 0.15
  },
  {
    "molecule": "C[C@@H]1NC(=O)[C@H](C)NC(=O)[C@H](CCCN)NC(=O)[C@H](CCCN)NC(=O)[C@@H]2CSSC[C@H](NC(=O)[C@H](Cc3c[nH]c4ccccc34)NC1=O)C(=O)N1CSC[C@H]1C(=O)N[C@@H](Cc1c[nH]cn1)C(=O)N[C@H](Cc1ccccc1)C(=O)N[C@@H](Cc1c[nH]cn1)C(=O)N[C@@H](Cc1c[nH]c3ccccc13)C(=O)N2 [Chem. 116] (cyclo(AAWC[Thz]H[dF]HWC[Orn][Orn]); disulfide 4-10)",
    "readout-unit": "nM",
    "EC50": 0.12
  }
]

----------
system-name: human MC4R (Homo sapiens, UniProt P32245)
Construct: expressed in transfected cells
assay-remarks: Functional cAMP assay (CisBio HTRF) in BHK cells expressing human MC4R
Assay type: cell-based
measurement-context: MC1R cAMP EC50 divided by MC4R cAMP EC50
Positions of bridges follow the written chain, without caps; N, C: chain ends. Non-standard residues stand in square brackets, D forms with d. Residues, ends and D or L forms follow the SMILES beside them. 1Nal = N[C@@H](Cc1cccc2ccccc12)C(=O)O

[
  {
    "compound": "C[C@@H]1NC(=O)[C@@H]2CSSC[C@H](NC(=O)[C@H](Cc3c[nH]c4ccccc34)NC(=O)[C@H](CCCCN)NC(=O)[C@H](CCCCN)NC(=O)[C@H](CCCCN)NC1=O)C(=O)N1CCC[C@@H]1C(=O)N[C@@H](Cc1c[nH]cn1)C(=O)N[C@H](Cc1ccccc1)C(=O)N[C@@H](Cc1c[nH]cn1)C(=O)N[C@@H](Cc1c[nH]c3ccccc13)C(=O)N2 [Chem. 98] (cyclo(AKKKWC[dP]H[dF]HWC); disulfide 6-12)",
    "sign-qualifier": ">",
    "MC1R/MC4R cAMP EC50 ratio": 20
  },
  {
    "compound": "C[C@@H]1NC(=O)[C@H](C)NC(=O)[C@H](C)NC(=O)[C@@H]2CSSC[C@H](NC(=O)[C@H](Cc3c[nH]c4ccccc34)NC(=O)[C@H](C)NC1=O)C(=O)N[C@@H](C)C(=O)N[C@@H](Cc1c[nH]cn1)C(=O)N[C@H](Cc1ccccc1)C(=O)N[C@@H](CCCNC(=N)N)C(=O)N[C@@H](Cc1c[nH]c3ccccc13)C(=O)N2 [Chem. 87] (cyclo(AAAAWCAH[dF]RWC); disulfide 6-12)",
    "sign-qualifier": "=",
    "MC1R/MC4R cAMP EC50 ratio": 35
  },
  {
    "compound": "C[C@@H]1NC(=O)[C@@H]2CSSC[C@H](NC(=O)[C@H](Cc3cccc4ccccc34)NC(=O)[C@H](CCCNC(=N)N)NC(=O)[C@@H](Cc3ccccc3)NC(=O)[C@H](Cc3c[nH]cn3)NC1=O)C(=O)N[C@@H](C)C(=O)N[C@@H](CCCCN)C(=O)N[C@@H](CCCCN)C(=O)N[C@@H](CCCCN)C(=O)N[C@@H](Cc1c[nH]c3ccccc13)C(=O)N2 [Chem. 64] (cyclo([1Nal]CAKKKWCAH[dF]R); disulfide 2-8)",
    "sign-qualifier": "=",
    "MC1R/MC4R cAMP EC50 ratio": 141
  },
  {
    "compound": "NCCCC[C@@H]1NC(=O)[C@H](CCCCN)NC(=O)[C@H](CCCCN)NC(=O)[C@@H]2CSSC[C@H](NC(=O)[C@H](Cc3c[nH]c4ccccc34)NC(=O)[C@H](CCCCN)NC1=O)C(=O)N[C@@H](CCCCN)C(=O)N[C@@H](Cc1c[nH]cn1)C(=O)N[C@H](Cc1ccccc1)C(=O)N[C@@H](Cc1c[nH]cn1)C(=O)N[C@@H](Cc1c[nH]c3ccccc13)C(=O)N2 [Chem. 77] (cyclo(CKH[dF]HWCKKKKW); disulfide 1-7)",
    "sign-qualifier": "=",
    "MC1R/MC4R cAMP EC50 ratio": 108
  },
  {
    "compound": "C[C@@H]1NC(=O)[C@@H]2CSSC[C@H](NC(=O)[C@H](Cc3c[nH]c4ccccc34)NC(=O)[C@H](CCCCNC(=N)N)NC(=O)[C@@H](Cc3ccccc3)NC(=O)[C@H](Cc3c[nH]cn3)NC1=O)C(=O)N[C@@H](C)C(=O)N[C@@H](Cc1c[nH]cn1)C(=O)N[C@H](Cc1ccccc1)C(=O)N[C@@H](CCCCNC(=N)N)C(=O)N[C@@H](Cc1c[nH]c3ccccc13)C(=O)N2 [Chem. 22]",
    "sign-qualifier": "=",
    "MC1R/MC4R cAMP EC50 ratio": 11
  },
  {
    "compound": "C[C@@H]1NC(=O)[C@@H]2CSSC[C@H](NC(=O)[C@H](Cc3c[nH]c4ccccc34)NC(=O)[C@H](CCCNC(=N)N)NC(=O)[C@@H](Cc3ccccc3)NC(=O)[C@H](Cc3c[nH]cn3)NC1=O)C(=O)N[C@@H](C)C(=O)N[C@@H](CCC(=O)O)C(=O)N[C@@H](CCC(=O)O)C(=O)N[C@@H](CCC(=O)O)C(=O)N[C@@H](Cc1c[nH]c3ccccc13)C(=O)N2 [Chem. 44] (cyclo(AEEEWCAH[dF]RWC); disulfide 6-12)",
    "sign-qualifier": "=",
    "MC1R/MC4R cAMP EC50 ratio": 21
  }
]
